test: Chemical stability of the compound in phosphate buffer at pH 7.4 assessed as unchanged compound level at 100 uM after 24 hrs by RP-HPLC analysis; type: physicochemical; settings: read-out: Stability
parameter: remaining at 24 h, 100 µM (%)

compound | parameter | numeric.value
Cc1oncc1C(=O)Nc1ccc(C(F)(F)F)cc1 [LEFLUNOMIDE] | remaining at 24 h, 100 µM | 80

* * *

assay: Chemical stability of the compound in phosphate buffer at pH 7.4 assessed as half life at 100 uM after 30 mins by RP-HPLC analysis; assay type: physicochemical

molecule | prefix.operator | half-life at 100 µM / h
COc1ccc(NC(=O)c2cnon2)cc1 | = | 1.77
O=C(Nc1ccc(-c2ccccc2)cc1)c1cnon1 | = | 1.28
O=C(Nc1ccccc1F)c1cnon1 | = | 1.7
O=C(Nc1cc(F)cc(F)c1)c1cnon1 | = | 1.53
O=C(Nc1ccc([N+](=O)[O-])cc1)c1cnon1 | = | 1.15
O=C(Nc1ccccc1)c1cnon1 | = | 2.06
O=C(Nc1cc(C(F)(F)F)cc(C(F)(F)F)c1)c1cnon1 | = | 1.52
O=C(Nc1cccc(C(F)(F)F)c1)c1cnon1 | = | 1.68
Cc1oncc1C(=O)Nc1ccc(C(F)(F)F)cc1 [LEFLUNOMIDE] | > | 24
O=C(Nc1ccc(F)cc1)c1cnon1 | = | 1.48
O=C(Nc1ccc(C(F)(F)F)cc1)c1cnon1 | = | 1.38
Cc1ccc(NC(=O)c2cnon2)cc1 | = | 1.89
O=C(Nc1cccc(F)c1)c1cnon1 | = | 1.81

* * *

target: Dihydroorotate dehydrogenase (quinone), mitochondrial (Rattus norvegicus)
Sequence (Q63707 whole entry): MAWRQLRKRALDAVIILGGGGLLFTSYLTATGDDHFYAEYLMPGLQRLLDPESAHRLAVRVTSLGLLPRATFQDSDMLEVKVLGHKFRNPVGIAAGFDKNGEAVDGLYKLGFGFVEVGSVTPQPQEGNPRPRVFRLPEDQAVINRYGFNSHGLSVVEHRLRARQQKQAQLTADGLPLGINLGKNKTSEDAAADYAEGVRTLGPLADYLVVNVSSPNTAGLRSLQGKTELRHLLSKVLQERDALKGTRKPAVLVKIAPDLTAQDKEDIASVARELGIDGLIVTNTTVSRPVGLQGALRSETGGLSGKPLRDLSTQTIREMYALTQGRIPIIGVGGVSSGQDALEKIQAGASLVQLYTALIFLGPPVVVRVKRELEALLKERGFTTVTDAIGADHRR
pIC50: −log10 of the molar value.
parameter: pIC50

compound | parameter | numeric.value
Cc1oncc1C(=O)Nc1ccc(C(F)(F)F)cc1 [LEFLUNOMIDE] | pIC50 | 5.80
N#CC(C(=O)Nc1ccc(C(F)(F)F)cc1)=[N+]([O-])[O-] | pIC50 | 4.77

* * *

experiment: Dissociation constant, pKa of the compound by potentiometric titration; type: physicochemical
parameter: pKa

query.smiles | parameter | numeric.value
N#C/C(=N\O)C(=O)Nc1cccc(F)c1 | pKa | 4.92
N#C/C(=N\O)C(=O)Nc1ccccc1 | pKa | 5.12
Cc1ccc(NC(=O)/C(C#N)=N/O)cc1 | pKa | 5.07
N#C/C(=N\O)C(=O)Nc1cc(F)cc(F)c1 | pKa | 4.81
N#C/C(=N\O)C(=O)Nc1ccc(F)cc1 | pKa | 5.01
N#C/C(=N\O)C(=O)Nc1ccccc1F | pKa | 4.87
COc1ccc(NC(=O)/C(C#N)=N/O)cc1 | pKa | 5.08
N#C/C(=N\O)C(=O)Nc1ccc(C(F)(F)F)cc1 | pKa | 4.87
N#C/C(=N\O)C(=O)Nc1cc(C(F)(F)F)cc(C(F)(F)F)c1 | pKa | 4.73
N#C/C(=N\O)C(=O)Nc1cccc(C(F)(F)F)c1 | pKa | 4.88
N#C/C(=N\O)C(=O)Nc1ccc(-c2ccccc2)cc1 | pKa | 5.03
N#C/C(=N\O)C(=O)Nc1ccc([N+](=O)[O-])cc1 | pKa | 4.61
